# EXPERIMENTAL TARGET: Polyunsaturated fatty acid 5-lipoxygenase (Homo sapiens) (UniProt P09917)
# PROTOCOL SUMMARY: Inhibition of recombinant human 5-LO expressed in Escherichia coli BL21 using arachidonic acid as substrate assessed as remaining activity at 10 uM preincubated for 5 to 10 mins followed by substrate addition measured after 10 mins by HPLC analysis relative to control

| COMPOUND | EXPERIMENTAL TARGET | Activity [%] |
| --- | --- | --- |
| CC(C)C(=O)c1c(O)c([C@@H](C2=C(O)C(C)(C)C(=O)C(C)(C)C2=O)C(C)C)c(O)c2c1OC1=C(C(=O)C(C)(C)C(=O)C1(C)C)[C@@H]2C(C)C | Polyunsaturated fatty acid 5-lipoxygenase (Homo sapiens) (UniProt P09917) | 82.3 |
| CCCCCC(=O)c1c(O)c(C(C2=C(O)C(C)(C)C(=O)C(C)(C)C2=O)C(C)C)c(O)c2c1OC1=C(C(=O)C(C)(C)C(=O)C1(C)C)C2C(C)C (stereo not drawn) | Polyunsaturated fatty acid 5-lipoxygenase (Homo sapiens) (UniProt P09917) | 66.7 |
| CC(C)C(C1=C(O)C(C)(C)C(=O)C(C)(C)C1=O)c1c(O)c(C(=O)c2ccccc2)c(O)c(C(C2=C(O)C(C)(C)C(=O)C(C)(C)C2=O)C(C)C)c1O (stereo not drawn) | Polyunsaturated fatty acid 5-lipoxygenase (Homo sapiens) (UniProt P09917) | 82.9 |
| CCCCCC(=O)c1c(O)cc(O)c(C(C2=C(O)C(C)(C)C(=O)C(C)(C)C2=O)C(C)C)c1O (stereo not drawn) | Polyunsaturated fatty acid 5-lipoxygenase (Homo sapiens) (UniProt P09917) | 72.8 |
| CCCCCC(=O)c1c(O)c(C(C2=C(O)CC(C)(C)CC2=O)C(C)C)c(O)c(C(C2=C(O)CC(C)(C)CC2=O)C(C)C)c1O (stereo not drawn) | Polyunsaturated fatty acid 5-lipoxygenase (Homo sapiens) (UniProt P09917) | 68.7 |
| CC(=O)c1c(O)c(C(C2=C(O)CC(C)(C)CC2=O)C(C)C)c(O)c(C(C2=C(O)CC(C)(C)CC2=O)C(C)C)c1O (stereo not drawn) | Polyunsaturated fatty acid 5-lipoxygenase (Homo sapiens) (UniProt P09917) | 69.3 |
| CC(C)C(=O)c1c(O)cc(O)c(C(C2=C(O)C(C)(C)C(=O)C(C)(C)C2=O)C(C)C)c1O (stereo not drawn) | Polyunsaturated fatty acid 5-lipoxygenase (Homo sapiens) (UniProt P09917) | 82.5 |
| CC(C)C(=O)c1c2c(c(O)c3c1OC1=C(C(=O)C(C)(C)C(=O)C1(C)C)C3C(C)C)C(C(C)C)C1=C(O2)C(C)(C)C(=O)C(C)(C)C1=O (stereo not drawn) | Polyunsaturated fatty acid 5-lipoxygenase (Homo sapiens) (UniProt P09917) | 95 |

----------
# EXPERIMENTAL TARGET: Polyunsaturated fatty acid 5-lipoxygenase (Homo sapiens, UniProt P09917)
# Sequence (P09917 whole entry): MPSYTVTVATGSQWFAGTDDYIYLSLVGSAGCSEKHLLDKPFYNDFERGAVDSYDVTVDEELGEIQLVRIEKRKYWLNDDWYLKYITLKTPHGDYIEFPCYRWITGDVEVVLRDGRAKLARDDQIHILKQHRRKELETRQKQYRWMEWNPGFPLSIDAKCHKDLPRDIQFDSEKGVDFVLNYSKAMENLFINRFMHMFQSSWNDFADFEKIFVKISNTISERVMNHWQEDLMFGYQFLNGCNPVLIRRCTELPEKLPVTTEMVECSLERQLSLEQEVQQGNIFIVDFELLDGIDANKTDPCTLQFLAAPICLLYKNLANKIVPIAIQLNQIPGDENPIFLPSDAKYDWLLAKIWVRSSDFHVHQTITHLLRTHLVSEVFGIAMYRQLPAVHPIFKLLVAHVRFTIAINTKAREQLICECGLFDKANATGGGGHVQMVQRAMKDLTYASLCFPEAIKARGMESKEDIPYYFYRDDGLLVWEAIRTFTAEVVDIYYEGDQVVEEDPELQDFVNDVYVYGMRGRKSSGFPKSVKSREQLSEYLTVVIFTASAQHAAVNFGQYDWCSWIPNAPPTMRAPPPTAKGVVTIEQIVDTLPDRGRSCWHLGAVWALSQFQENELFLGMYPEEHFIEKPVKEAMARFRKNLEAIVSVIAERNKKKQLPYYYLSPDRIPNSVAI
# PROTOCOL SUMMARY: Inhibition of 5-LO in ionophore A23187-stimulated human PMNL using arachidonic acid as substrate assessed as formation of LTB4, 5(S),12(S)-DiHETE, 5-H(p)ETE preincubated for 15 mins followed by substrate and ionophore addition measured after 10 mins by HPLC analysis
Catalogue of compounds with associated IC50

| COMPOUND | EXPERIMENTAL TARGET | VALUE RELATION SIGN | IC50 (µM) |
| --- | --- | --- | --- |
| CC(C)CC(C1=C(O)C(C)(C)C(=O)C(C)(C)C1=O)c1c(O)c(C(=O)C(C)C)c(O)c(C(CC(C)C)C2=C(O)C(C)(C)C(=O)C(C)(C)C2=O)c1O (stereo not drawn) | Polyunsaturated fatty acid 5-lipoxygenase (Homo sapiens, UniProt P09917) | = | 0.97 |
| CC(C)C(=O)c1c(O)c(C(C2=C(O)CC(C)(C)CC2=O)C(C)C)c(O)c(C(C2=C(O)CC(C)(C)CC2=O)C(C)C)c1O (stereo not drawn) | Polyunsaturated fatty acid 5-lipoxygenase (Homo sapiens, UniProt P09917) | = | 13 |
| CC(C)C(C1=C(O)CC(C)(C)CC1=O)c1c(O)c(C(C2=C(O)CC(C)(C)CC2=O)C(C)C)c(O)c(C(C2=C(O)CC(C)(C)CC2=O)C(C)C)c1O (stereo not drawn) | Polyunsaturated fatty acid 5-lipoxygenase (Homo sapiens, UniProt P09917) | > | 10 |

----------
Catalogue of molecules with associated Activity
# EXPERIMENTAL TARGET: Polyunsaturated fatty acid 5-lipoxygenase (Homo sapiens) (UniProt P09917)
# PROTOCOL SUMMARY: Inhibition of 5-LO in ionophore A23187-stimulated human PMNL using arachidonic acid as substrate assessed as remaining activity at 10 uM preincubated for 15 mins followed by substrate and ionophore addition measured after 10 mins by HPLC analysis relative to control
MEASURED METRIC: Activity

| MOLECULE | MEASURED METRIC | ASSAY RESULT |
| --- | --- | --- |
| CC(C)C(=O)c1c2c(c(O)c3c1OC1=C(C(=O)C(C)(C)C(=O)C1(C)C)C3C(C)C)C(C(C)C)C1=C(O2)C(C)(C)C(=O)C(C)(C)C1=O (centres undefined) | Activity | 69.5% |
| CC(C)C(C1=C(O)CC(C)(C)CC1=O)c1c(O)c(C(C2=C(O)CC(C)(C)CC2=O)C(C)C)c(O)c(C(C2=C(O)CC(C)(C)CC2=O)C(C)C)c1O (centres undefined) | Activity | 83.5% |
| CC(C)C(C1=C(O)C(C)(C)C(=O)C(C)(C)C1=O)c1c(O)c(C(=O)c2ccccc2)c(O)c(C(C2=C(O)C(C)(C)C(=O)C(C)(C)C2=O)C(C)C)c1O (centres undefined) | Activity | 69.7% |
| CC(C)C(C1=C(O)CC(C)(C)CC1=O)c1c(O)c(C(=O)c2ccccc2)c(O)c(C(C2=C(O)CC(C)(C)CC2=O)C(C)C)c1O (centres undefined) | Activity | 66.1% |

----------
# EXPERIMENTAL TARGET: Polyunsaturated fatty acid 5-lipoxygenase (Homo sapiens)
# PROTOCOL SUMMARY: Inhibition of 5-LO in ionophore A23187-stimulated human PMNL using arachidonic acid as substrate assessed as formation of LTB4, 5(S),12(S)-DiHETE, 5-H(p)ETE preincubated for 15 mins followed by substrate and ionophore addition measured after 10 mins by HPLC analysis
MEASURED METRIC: IC50 (µM)

| MOLECULE | VALUE RELATION SIGN | ASSAY RESULT |
| --- | --- | --- |
| CC(C)C(=O)c1c(O)c([C@H](C2=C(O)C(C)(C)C(=O)C(C)(C)C2=O)C(C)C)c(O)c([C@H](C2=C(O)C(C)(C)C(=O)C(C)(C)C2=O)C(C)C)c1O [MYRTUCOMMULONE A] | = | 3.2 |
| CCCCCC(=O)c1c(O)c(C(C2=C(O)c3ccccc3C2=O)c2ccccc2)c(O)c(C(C2=C(O)c3ccccc3C2=O)c2ccccc2)c1O (stereo unspecified) | = | 0.69 |
| CCCCCC(=O)c1c(O)c(C(CC(C)C)C2=C(O)CC(C)(C)CC2=O)c(O)c(C(CC(C)C)C2=C(O)CC(C)(C)CC2=O)c1O (stereo unspecified) | = | 7.3 |
| CC(=O)c1c(O)c(C(C2=C(O)CC(C)(C)CC2=O)C(C)C)c(O)c(C(C2=C(O)CC(C)(C)CC2=O)C(C)C)c1O (stereo unspecified) | = | 8.1 |
| CC(C)C(=O)c1c2c(c(O)c3c1OC1=C(C(=O)C(C)(C)C(=O)C1(C)C)C3C(C)C)C(C(C)C)C1=C(O2)C(C)(C)C(=O)C(C)(C)C1=O (stereo unspecified) | > | 10 |
| CC(C)CC(=O)c1c(O)cc(O)c(C(CC(C)C)C2=C(O)C(C)(C)C(=O)C(C)(C)C2=O)c1O (stereo unspecified) | = | 1.8 |
